B1: Double-strand break repair protein MRE11 (Homo sapiens), P49959 (parent)
chain: MSTADALDDENTFKILVATDIHLGFMEKDAVRGNDTFVTLDEILRLAQENEVDFILLGGDLFHENKPSRKTLHTCLELLRKYCMGDRPVQFEILSDQSVNFGFSKFPWVNYQDGNLNISIPVFSIHGNHDDPTGADALCALDILSCAGFVNHFGRSMSVEKIDISPVLLQKGSTKIALYGLGSIPDERLYRMFVNKKVTMLRPKEDENSWFNLFVIHQNRSKHGSTNFIPEQFLDDFIDLVIWGHEHECKIAPTKNEQQLFYISQPGSSVVTSLSPGEAVKKHVGLLRIKGRKMNMHKIPLHTVRQFFMEDIVLANHPDIFNPDNPKVTQAIQSFCLEKIEEMLENAERERLGNSHQPEKPLVRLRVDYSGGFEPFSVLRFSQKFVDRVANPKDIIHFFRHREQKEKTGEEINFGKLITKPSEGTTLRVEDLVKQYFQTAEKNVQLSLLTERGMGEAVQEFVDKEEKDAIEELVKYQLEKTQRFLKERHIDALEDKIDEEVRRFRETRQKNTNEEDDEVREAMTRARALRSQSEESASAFSADDLMSIDLAEQMANDSDDSISAATNKGRGRGRGRRGGRGQNSASRGGSQRGRADTGLETSTRSRNSKTAVSASRNMSIIDAFKSTRQQPSRNVTTKNYSEVIEVDESDVEEDIFPTTSKTDQRWSSTSSSKIMSQSQVSKGVDFESSEDDDDDPFMNTSSLRRNRR

# Variants of: B1
# Measurement Context: with nbn_human NBN
Endpoint: effect of a mutation on the interaction

Consider the worked cases shown below.
C146A; decreasing interaction
S104C; decreasing interaction
R80A; disrupting interaction
P121G; disrupting interaction
D86L; decreasing interaction

Dear colleague, I am looking for the recorded effect of a mutation on the interaction of the following variant: `N117L`
disrupting interaction

Next entry: `R202G`
disrupting interaction
